Tested on: OVCAR-3
assay_summary: NCI tumour cell line growth inhibition, 48 h
The source made the active and inactive calls. Cut-off read from the data, not from the text of the source: active = GI50 up to about 1.1 µM and inactive = higher.
I'd be grateful if you could share measured GI50 for these entries.

Previously resolved entries follow.
Nc1ccc(Oc2ccc(C3(c4ccc(Oc5ccc(N)cc5)cc4)C4CC5C6CC7CC5C3C(C7)C6C4)cc2)cc1
2.01 µM (inactive)
O=C(Nc1c(Cl)cc([N+](=O)[O-])cc1Cl)C(=O)C1C(=O)NC(=S)NC1=O
> 100 µM (inactive)
CN(C)CCNC(=O)c1cccc2c1Oc1cccc([N+](=O)[O-])c1O2
20.8 µM (inactive)
Cc1n[nH]c(=S)n1/N=C/c1ccc(-c2ccc(Cl)cc2)o1
> 100 µM (inactive)

Here's the next entry for you.
Task item: Which GI50 value belongs to O=C1OC2(c3ccccc31)c1cc(I)c(O)c(I)c1Oc1c2cc(I)c(O)c1I ?
Reply: 5.46 µM (inactive)

====

Test system: TK-10
assay_summary: NCI tumour cell line growth inhibition, 48 h
Activity calls are given as the source filed them. Rule as the data show it: active = GI50 up to about 1.1 µM and inactive = higher.
I'd be grateful if you could share measured GI50 for these entries.

Previously resolved entries follow.
CN(C)CCN(c1ccccn1)c1ccccn1
> 100 µM (inactive)
O=C(CSC1=NCCN1)c1ccccc1
> 100 µM (inactive)
Cc1nc2sccn2c1/C=C1/C(=O)Nc2cccc(Cl)c21
> 100 µM (inactive)
OC1CCCC1C(O)(C(F)(F)F)C(F)(F)F (configuration not stated)
> 100 µM (inactive)
O=c1[nH]/c(=C/c2ccc3c(c2)OCO3)c(=O)[nH]/c1=C/c1ccc2c(c1)OCO2
> 10 µM (inactive)

Parameters: items (list). Returns: GI50 for each item.
1. COC(=O)C1=C(C)N2[C@H](C(=O)O)CO[C@@]2(C)[C@H](C(=O)OC)[C@H]1c1cccc([N+](=O)[O-])c1
2. N=C(c1ccc(-c2cn3cc(C(=N)N4CCCC4)ccc3n2)cc1)N1CCCC1
3. O=C(Cc1ccccc1)Nn1c(-c2ccccc2)nc2ccccc2c1=O
4. O=C(O)c1ccccc1/C=C1/Nc2ccccc2C1=O
5. CC(=O)OCc1ncccc1C(OC(C)=O)OC(C)=O
6. Cc1c2ccc3ccccc3c2c[n+]2ccccc12

Reply:
["> 100 µM (inactive)", "> 100 µM (inactive)", "> 100 µM (inactive)", "> 100 µM (inactive)", "> 100 µM (inactive)", "35.7 µM (inactive)"]

Task item: Find GI50 (TK-10) for the entry OCCCCCNc1c2ccccc2nc2ccccc12
Reply: 3.6 µM (inactive)

====

Tested on: MOLT-4
assay_summary: NCI tumour cell line growth inhibition, 48 h
The source made the active and inactive calls. Rule as the data show it: active = GI50 up to about 1.1 µM and inactive = higher.
Lab note: assign the record to one of class 1 for active, class 0 for inactive

Reference set, count: 10
OC(C1CCC=NN1C(O)(C(F)(F)F)C(F)(F)F)(C(F)(F)F)C(F)(F)F (centres undefined)
class 0
C=CCc1cccc2cc(C(=O)Nc3ccccn3)c(=N)oc12
class 0
CC(=O)OC1C(C)OC(OC(=O)C2CCC3C(C2)OC2(CC(OC(=O)/C=C/c4ccccc4)C(C)CO2)C32CO2)C(OC2OC(C)C(O)C(OC(C)=O)C2O)C1O (centres undefined)
class 1
CC(=O)OCc1ncccc1C(OC(C)=O)OC(C)=O
class 0
CC(=O)CCC[C@H](C)[C@@H](O)[C@@H]1O[C@H]([C@@]2(C)CCC(=O)O2)C[C@H]1C(=O)O
class 0
COc1ccc(OC)c2c(/C=C/c3ccc(N(C)C)cc3)ccnc12
class 0
COCC1OC(S(=O)(=O)c2ccccc2)C(O)C(OC)C1OC (centres undefined)
class 0
CCOC(=O)CC1CCN(C(=O)c2ccccc2)C2Cc3c([nH]c4ccccc34)C12C[N+](=O)[O-] (centres undefined)
class 0
O=Cc1ccc(-c2ccc(S(=O)(=O)O)cc2)o1
class 0
Cc1c2ccc3ccccc3c2c[n+]2ccccc12
class 0

Task item: Recorded test outcome, item CCN(CC)C(=O)C/C(C)=N/NC(=O)c1ccncc1
Reply: class 0

Task item: Recorded test outcome, item O=C(N/C=C1\C(=O)Oc2ccccc2C1=O)Oc1ccccc1
Reply: class 0

Task item: Recorded test outcome, item COc1ccc(C2=CC(c3ccccc3)n3nnnc3N2)cc1 (centres undefined)
Reply: class 0

Task item: Recorded test outcome, item OC1CCCC1C(O)(C(F)(F)F)C(F)(F)F (centres undefined)
Reply: class 0
